Target: PDL1, Q9NZQ7
Sequence (Q9NZQ7 whole entry): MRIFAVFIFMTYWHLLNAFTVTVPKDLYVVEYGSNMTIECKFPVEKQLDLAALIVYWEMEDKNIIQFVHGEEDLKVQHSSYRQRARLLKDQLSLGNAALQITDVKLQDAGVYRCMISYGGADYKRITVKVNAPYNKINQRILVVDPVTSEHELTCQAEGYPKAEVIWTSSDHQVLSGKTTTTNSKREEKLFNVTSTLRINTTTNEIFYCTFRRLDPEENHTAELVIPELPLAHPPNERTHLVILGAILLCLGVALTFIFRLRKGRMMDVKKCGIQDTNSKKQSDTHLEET
test.readout: binding in a display sort

d8r1_design_ppi_1260_dldesign_0_cycle1_af2pred (protein) MTAEEALAEMEKLTKEMKEVSPLAGNAMEAHLNKAKELVAAVAAEDPEKAAEVAAKSYEQAKALYKAMKEMIEEEKKEKELA :: not found (inactive)
d8r1_design_ppi_1486_dldesign_0_cycle1_af2pred (protein) MKELEEAKKEAEKAREELLKAAKEAAKVDPTVATGANNAAEGAKVLIESGSLGAARAGKAIAEAALKKAQAVLDAAQKA :: not found (inactive)
d8r1_design_ppi_637_dldesign_0_cycle1_af2pred (protein) MTAEAAKAEVRARLEAAGERAAEAAKERGADYEAVLAAARSMAERAAADPDPEAALARGAEALAFLEALEKYYRE :: not found (inactive)
